Assay name: basal RPMI8226 viability, no added stimulus, profiling panel, cell-based, calcein-AM fluorescence, 48 h, PK04 Diversity Set (AID 1166);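 further: cells grown under basal conditions without added stimulus; test concentration not given here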
Experimental conditions: RPMI8226 myeloma viability, higher = more signal
Quantity name: z-score
Number, no unit, nothing else.

(Q) Report z-score for CSCC[C@@H]1NC(=O)CC=C[C@@H](C)COC(=O)[C@H](CCSC)NC(=O)CC=C[C@@H](C)COC1=O
(A) 0.0542

(Q) Tell me its z-score given COC(=O)[C@@]1(Cc2ccccc2N=[N+]=[N-])N=C(c2ccc(OCCCO)cc2)O[C@H]1c1ccccc1CN=[N+]=[N-] as the entry.
(A) -3.96

(Q) // fetch z-score given entry Cc1ccc(S[C@]2(C(=O)NCCCN(C)C)CC(=O)N(Cc3ccccc3)[C@@H]2c2ccc(CO)cc2I)cc1
(A) -2.38

(Q) Retrieve z-score measured for Cc1ccc(S[C@]2(C(=O)NCCCN(C)C)CC(=O)N(C3CCCCC3)[C@@H]2c2ccc(CO)cc2I)cc1 and print it.
(A) -3.08

(Q) // Input: CO[C@H]1COC(=O)[C@H](CCSC)NC(=O)CC=C[C@@H](C)COC(=O)[C@@H](OCc2ccccc2)C=C[C@@H]1C . Output its z-score only.
(A) -0.358

(Q) Quote z-score reported for Cc1ccc(S(=O)(=O)N2[C@@H](c3ccccc3)C(C(=O)O)=CC[C@H]2c2ccccc2)cc1 please.
(A) -1.25

(Q) Input CO[C@H]1COC(=O)[C@H](C)COC(=O)[C@H](Cc2ccccc2)NC(=O)CC=C[C@H]1C , output reported z-score.
(A) 1.14

(Q) Determine its reported z-score: C=C(CCCC)/C(=C/C[C@@H](OC(=O)c1ccncc1)c1ccc(CO)o1)c1cnc2ccccc2c1
(A) -1.18

---

Target or system: Homeobox protein Hox-A13 (Mus musculus) (UniProt Q62424)
Sequence (Q62424 whole entry, looked up): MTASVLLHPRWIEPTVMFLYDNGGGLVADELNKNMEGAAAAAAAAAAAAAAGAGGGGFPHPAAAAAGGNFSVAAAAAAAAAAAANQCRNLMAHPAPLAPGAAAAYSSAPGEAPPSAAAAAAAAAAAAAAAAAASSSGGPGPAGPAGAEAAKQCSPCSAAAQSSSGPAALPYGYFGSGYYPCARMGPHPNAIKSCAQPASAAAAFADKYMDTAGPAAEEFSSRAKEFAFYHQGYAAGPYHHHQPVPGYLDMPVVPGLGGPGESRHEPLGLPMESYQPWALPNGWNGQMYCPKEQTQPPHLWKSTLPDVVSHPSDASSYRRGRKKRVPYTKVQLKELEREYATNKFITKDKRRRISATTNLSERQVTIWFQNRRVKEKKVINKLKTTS
Assay name: inhibitors of HoxA13-DNA binding, primary screen, biochemical, fluorescence polarization, labeled oligonucleotide (AID 1185)
Experimental conditions: 15 min, higher = more signal, called active from +8 up or from −8 down
Activity calls are given as the source filed them.
Quantity name: z-score

(Q) # return recorded z-score for entry Cc1ccc(N2C(=O)c3ccccc3[C@](C)(C(=O)O)[C@@H]2c2ccc(CO)cc2)nc1
(A) -0.0226 (inactive)

(Q) State its z-score for this compound: CC(C)[Si](OCC[C@H]1O[C@]2(C(=O)N(Cc3ccccc3)c3ccccc32)[C@@H](C)[C@@H]1[Si](C)(C)O)(C(C)C)C(C)C
(A) -0.292 (inactive)

(Q) Look up z-score of CC[C@H]1C2=C3C(CC[C@H]4C(OC)OC[C@](C)([C@@H]34)N(C(=O)OC(C)(C)C)C2)C(CO)C1CO (stereo partly drawn) and report it.
(A) -4.74 (inactive)

(Q) State its z-score: O=C1OCC=C[C@H]2OC34C=CCN(Cc5ccccc5)C(=O)[C@H]3N(CCCCCO)C(=O)[C@@H]4[C@@H]12 (stereo partly drawn)
(A) -3.21 (inactive)

(Q) Supply reported z-score belonging to this compound: CC(C)NC(=O)[C@@]1(Cc2ccccc2I)c2ccccc2C(=O)N(C2CCCCC2)[C@H]1c1ccc(CO)cc1
(A) -4.58 (inactive)

(Q) Supply reported z-score belonging to this compound: C#CCCCON=C1C[C@@H](O)[C@@H](O)[C@@H]2[C@@H]3C(=O)N(Cc4ccc5c(c4)OCO5)C(=O)[C@@H]3CC[C@@H]12
(A) -0.476 (inactive)

(Q) Name the recorded z-score of the compound listed here: CCOC(=O)C[C@H]1[C@H](OC(=O)c2ccccc2-c2ccccc2)[C@@H](NC(=O)c2ccc(-c3ccccc3)cc2)c2cc(OCCCO)ccc2N1C(=O)Cc1ccc(OC)cc1
(A) -2.32 (inactive)

(Q) Input [N-]=[N+]=NCc1ccccc1C[C@]1(C(N)=O)N=C(c2ccc(OCCCO)cc2)O[C@H]1c1ccccc1CN=[N+]=[N-] , output reported z-score.
(A) 1.67 (inactive)

(Q) Give z-score for the following compound: COCCOC(=O)N1C(=O)[C@@]2(c3cc(C#CC4=CCCCC4)ccc31)[C@H](C(=O)NC[C@H](O)c1ccccc1)[C@H]1C(=O)O[C@H](c3ccccc3)[C@H](c3ccccc3)N1[C@@H]2c1ccc(OCCO)cc1
(A) 2.05 (inactive)

(Q) Identify measured z-score associated with COCCOC(=O)N1C(=O)[C@@]2(c3cc(C#CCCO)ccc31)[C@H](c1ccc(OCCO)cc1)N1[C@H](c3ccccc3)[C@H](c3ccccc3)OC(=O)[C@H]1[C@@H]2C(=O)NC[C@H](O)c1ccccc1
(A) -1.24 (inactive)

(Q) Input C[C@@H]1C=CCC(=O)OC[C@H]2O[C@@H](C=C[C@@H]2O)[C@H](C)C=CCC(=O)OC[C@H]2O[C@H]1C=C[C@@H]2O , output reported z-score.
(A) -1.31 (inactive)

(Q) Read off the recorded z-score for CC(C)C[C@@H]1NC(=O)[C@H]2C[C@@H](C(=O)NCCCCCC[N+](C)(C)C)[C@@H](c3ccc(O)cc3)N2C1=O
(A) -3.14 (inactive)

(Q) Answer with the recorded z-score of C=C(/C(=C/C[C@@H](OC(=O)c1ccncc1)c1ccc(CO)o1)c1cnc2ccccc2c1)C(C)C only.
(A) -4.89 (inactive)

(Q) Identify the reported z-score for the following entry. COC(=O)[C@@]1(Cc2ccccc2N=[N+]=[N-])N=C(c2ccc(OCCCO)cc2)O[C@H]1c1ccccc1CN=[N+]=[N-]
(A) 1.05 (inactive)

(Q) For the compound C=CC[C@]1(C(=O)OC)N=C(c2ccc(OCCCO)cc2)O[C@H]1c1ccccc1CN=[N+]=[N-] , give its measured z-score value.
(A) -1.99 (inactive)

(Q) Entry COCCOC(=O)N1C(=O)[C@@]2(c3cc(C#CCC(C(=O)OC)C(=O)OC)ccc31)[C@H](C(=O)N1CCN(c3ncccn3)CC1)[C@H]1C(=O)O[C@H](c3ccccc3)[C@H](c3ccccc3)N1[C@@H]2c1ccc(O)cc1 needs its z-score filled in; supply it.
(A) -0.323 (inactive)

(Q) Answer with reported z-score of CC(=O)NCCCC[C@@H]1NC(=O)[C@@H]2C[C@H](C(=O)NCCCCCNC(=O)CS)[C@H](c3ccc(O)cc3)N2C1=O
(A) -3.98 (inactive)

(Q) Please supply the value of reported z-score for the item CN1C(=O)C2C=CC(C(O)C3CC=CCC3)N(Nc3ccccc3)C2C1=O (stereo not drawn)
(A) -3.96 (inactive)

(Q) Kindly indicate its recorded z-score. Item: Cc1ccc(N2C(=O)c3ccccc3[C@@H](C(=O)NCC(F)(F)F)[C@@H]2c2ccc(CO)cc2)nc1
(A) -0.71 (inactive)

(Q) Determine from records and report z-score for C[C@@H]1CC[C@H]2C(=O)N3[C@@H](CC[C@@H](C)[C@@H]3c3cccc(N4CCOCC4)c3)C(=O)N2[C@H]1c1cccc(Br)c1
(A) -5.55 (inactive)

(Q) Complete the entry with z-score for Cc1ccc(S[C@]2(C(=O)NCCCN(C)C)CC(=O)N(C3CCCCC3)[C@@H]2c2ccc(CO)cc2I)cc1
(A) 0.756 (inactive)

(Q) Return value of z-score for input COC(=O)C(CC#Cc1ccc2c(c1)[C@]1(C(=O)N2)[C@H](C(=O)N2CCCCCCC2)[C@H]2C(=O)O[C@H](c3ccccc3)[C@H](c3ccccc3)N2[C@@H]1c1ccc(O)cc1)C(=O)OC , no commentary.
(A) 1.11 (inactive)

(Q) // Input: CO[C@H]1COC(=O)[C@H](C)COC(=O)[C@H](Cc2ccccc2)NC(=O)CC=C[C@H]1C . Output its z-score only.
(A) 0.57 (inactive)

(Q) Provide measured z-score value, entry: C=CCc1cccc([C@H]2N[C@H](C(=O)O)CC[C@@H]2C)c1
(A) 0.811 (inactive)

(Q) # return recorded z-score for entry COc1cc(CO)cc(I)c1O[C@H]1C=C(C(=O)NCCO)C[C@@H](N(CC2CCCCC2)C(=O)c2cc3ccccc3oc2=O)[C@@H]1O
(A) -6.1 (inactive)

(Q) Annotate the compound COc1ccc(NN2C(C(O)c3cc(OC)c(OC)c(OC)c3)C=CC3C(=O)N(C4CCCCC4)C(=O)C32)cc1 (stereo not drawn) with its measured z-score.
(A) -4.58 (inactive)

(Q) Report z-score, nothing else, for this compound: COc1ccc(C(=O)Nc2ccc(CN3C(=O)[C@]4(O[C@H](CCn5cc(CCO)nn5)[C@@H]([Si](C)(C)c5ccc(OC)cc5)[C@@H]4C)c4ccccc43)cc2)cc1
(A) -3.55 (inactive)

(Q) Please give the documented z-score of COc1ccc(C(O)C2C=CC3C(=O)N(C)C(=O)C3N2N2CCCCC2)cc1OCc1ccccc1 (stereo not drawn)
(A) -4.76 (inactive)
